Source: patent EP3154958B1

Please go through the items and note down their IC50.
molecular target: PI3Kδ (Homo sapiens); construct: made in house; assay: TR-FRET enzymatic activity assay, PI3Kδ; format: biochemical; conditions: recombinant heterodimeric PI3Kδ 25-50 pM, 2× Km ATP, 30 minutes at 25°C
Sequence (O00329 whole entry): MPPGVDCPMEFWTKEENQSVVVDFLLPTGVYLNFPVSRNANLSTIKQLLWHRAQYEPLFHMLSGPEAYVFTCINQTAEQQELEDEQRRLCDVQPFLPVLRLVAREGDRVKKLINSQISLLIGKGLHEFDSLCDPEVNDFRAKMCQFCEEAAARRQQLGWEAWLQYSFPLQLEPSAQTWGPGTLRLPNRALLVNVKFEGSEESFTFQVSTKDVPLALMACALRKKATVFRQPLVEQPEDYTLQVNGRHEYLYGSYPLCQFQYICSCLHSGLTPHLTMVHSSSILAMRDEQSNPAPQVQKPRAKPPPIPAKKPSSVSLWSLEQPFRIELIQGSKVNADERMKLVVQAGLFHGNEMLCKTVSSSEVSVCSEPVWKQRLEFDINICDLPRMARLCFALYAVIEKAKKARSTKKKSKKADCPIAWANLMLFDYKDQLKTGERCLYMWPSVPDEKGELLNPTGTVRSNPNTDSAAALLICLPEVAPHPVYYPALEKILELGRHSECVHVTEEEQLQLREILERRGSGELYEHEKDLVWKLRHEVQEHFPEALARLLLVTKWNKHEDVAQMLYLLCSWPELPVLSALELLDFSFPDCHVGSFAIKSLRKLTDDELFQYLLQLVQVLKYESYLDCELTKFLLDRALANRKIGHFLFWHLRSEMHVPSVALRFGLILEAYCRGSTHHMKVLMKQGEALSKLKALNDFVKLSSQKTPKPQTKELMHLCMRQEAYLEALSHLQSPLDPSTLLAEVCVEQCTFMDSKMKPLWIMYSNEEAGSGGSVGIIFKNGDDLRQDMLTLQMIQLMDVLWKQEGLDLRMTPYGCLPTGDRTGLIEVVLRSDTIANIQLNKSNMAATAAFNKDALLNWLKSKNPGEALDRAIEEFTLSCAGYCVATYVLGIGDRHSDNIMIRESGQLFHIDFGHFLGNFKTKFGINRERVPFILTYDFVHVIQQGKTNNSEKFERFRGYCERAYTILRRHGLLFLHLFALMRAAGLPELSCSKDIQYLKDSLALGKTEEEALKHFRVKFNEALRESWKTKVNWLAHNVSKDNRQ
Sequence (P27986 whole entry partner): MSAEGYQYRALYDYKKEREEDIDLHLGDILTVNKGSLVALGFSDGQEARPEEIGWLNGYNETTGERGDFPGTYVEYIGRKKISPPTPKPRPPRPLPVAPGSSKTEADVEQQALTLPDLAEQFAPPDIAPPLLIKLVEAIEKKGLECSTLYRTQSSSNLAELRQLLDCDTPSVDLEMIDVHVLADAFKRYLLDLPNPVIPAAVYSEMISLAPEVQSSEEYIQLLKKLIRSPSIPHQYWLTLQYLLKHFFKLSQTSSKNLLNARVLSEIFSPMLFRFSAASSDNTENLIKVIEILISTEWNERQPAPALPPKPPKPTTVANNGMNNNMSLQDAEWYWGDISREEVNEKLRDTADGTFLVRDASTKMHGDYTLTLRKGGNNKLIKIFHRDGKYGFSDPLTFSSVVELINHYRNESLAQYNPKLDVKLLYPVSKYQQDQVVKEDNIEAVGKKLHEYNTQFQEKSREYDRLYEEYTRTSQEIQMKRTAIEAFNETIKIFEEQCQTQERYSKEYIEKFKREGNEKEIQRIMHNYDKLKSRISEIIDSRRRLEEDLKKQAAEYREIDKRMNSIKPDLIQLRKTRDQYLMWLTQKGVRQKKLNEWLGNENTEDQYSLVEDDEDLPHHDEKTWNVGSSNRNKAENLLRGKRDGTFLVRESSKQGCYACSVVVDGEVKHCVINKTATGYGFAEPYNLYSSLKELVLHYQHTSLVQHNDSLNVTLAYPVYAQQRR
Answer format reminder: number followed by unit.

Examples with answers:
Exercise: Fill in the blank: the reported IC50 of C[C@H](Nc1ncnc(N)c1C#N)c1nc2cccc(Cl)c2c(=O)n1N1CCNC(C(F)(F)F)C1 (stereo partly drawn) [Compound 62] is ____.
Solution: 9 nM

Exercise: Fill in the blank: the reported IC50 of CC[C@H](Nc1nc(N)nc(N)c1C#N)c1nc2cccc(Cl)c2c(=O)n1N1CCN(Cc2ccc(F)cc2)CC1 [Compound 91] is ____.
Solution: 22 nM

Exercise: Fill in the blank: the reported IC50 of Cc1nc(N)nc(N[C@@H](C)c2nc3cccc(Cl)c3c(=O)n2C2CCN(CC(F)(F)F)CC2)c1C#N [Compound 106] is ____.
Solution: 11 nM

Need IC50 for each of these molecules.
1. N#Cc1c(N)nc(N)nc1N[C@H](c1nc2c(F)ccc(Cl)c2c(=O)n1N1CCNCC1)C1CC1 [Compound 48]
2. C[C@H](Nc1nc(N)nc(N)c1Cl)c1nc2cccc(Cl)c2c(=O)n1C1CCNCC1 [Compound 25]

Solution:
1 nM
25 nM

Exercise: Fill in the blank: the reported IC50 of C[C@H](Nc1nc(N)nc(N)c1C#N)c1nc2c(F)ccc(Cl)c2c(=O)n1C1[C@H]2CNC[C@@H]12 (stereo in doubt) [Compound 17] is ____.
Solution: 4 nM
